Would you mind telling me the reported GI50 of each entry?
system: A549 NSCLC; test: NCI tumour cell line growth inhibition, 48 h

Cc1c2c(nn1-c1ccc(S(=O)(=O)/N=C3\SCC(=O)N3C(=O)c3ccccc3)cc1)-c1ccccc1CC2	> 100 µM
CC(C)CSc1nc(Nc2ccccc2)c(C#N)c(-c2ccc(F)cc2)n1	1.71 µM
C=C1C(=O)O[C@H]2[C@H]1CC/C(COC(=O)/C=C\C(=O)NCc1ccc(Cn3c(=O)sn(-c4ccc(C#N)cc4)c3=O)cc1)=C\CC[C@@]1(C)O[C@@H]21	0.916 µM
N#C/C(C(=S)Nc1ccccc1)=C1/NN=C2c3ccccc3C(=O)NN21	34 µM
COc1ccc(C(=O)/C=C/c2cccnc2Nc2cc(OC)c(OC)c(OC)c2)cc1	1.67 µM

Fill in GI50 for each of the 2 molecules listed.
1. COc1ccc(-c2nc(-c3nc4ccc(C)cc4[nH]3)c3ccccn23)cc1
2. COC(=O)c1ccc2c(c1)n(Cc1ccc3ccccc3c1)c[n+]2Cc1ccc2ccccc2c1

Marked response:
1. 2.67 µM
2. 11.3 µM

Fill in GI50 for each of the 2 molecules listed.
1. NCCCCn1c2c(c3ccccc3c1=O)C(=O)c1ccccc1-2
2. CC[C@H](C)[C@H](NC(=O)[C@H]1CCCCN1C)C(=O)N(C)[C@H](CCc1nc(C(=O)N[C@@H](Cc2ccccc2)C[C@H](C)C(=O)OC)cs1)C(C)C

Marked response:
1: 0.0263 µM; 2: 1.1 µM

---

test system: OVCAR-5 ovarian; test: NCI tumour cell line growth inhibition, 48 h
outcome-measure: TGI

Solved entries:
COc1ccc(-n2c(SCc3cc(OC)c(OC)c(OC)c3)nc3ccc(C)cc3c2=O)cc1	> 100 µM
S=C1Cc2c([nH]c3ccccc23)-c2ccccc2N1	> 100 µM
CC[C@@H]1/C=C/C=C/C[C@H](C)[C@@H](O)[C@](C)(O)C(=O)[C@H](C)[C@@H](O)[C@H](C)C(=O)[C@H](C)[C@@H](O)[C@H](C)/C=C/C(=O)O[C@H]2[C@@H](C)[C@@H](CC1)O[C@]1(O[C@H](CC(C)O)[C@H](C)CC1=O)[C@@H]2C (stereo not given in full)	8.25 µM
Cc1cc(O)c(/C=N/C(=S)NCCc2ccccc2)c(=O)o1	> 100 µM

API: the following record is the query input.
Exam item: For the record `NS(=O)(=O)c1nnc(NC(=O)c2ccccc2)s1` , what value of TGI is listed for OVCAR-5 ovarian?
Marked response: > 100 µM

---

Would you mind telling me the reported TGI of each entry?
system: NCI-H522 lung; assay: NCI tumour cell line growth inhibition, 48 h
Give bare numbers, in µM.

Solved entries:
COc1ccc(S(=O)(=O)N(Cc2ccc3c(n2)C=CC(C)(C)O3)C2CCC2)cc1OC	0.0768
COC(=O)[C@]12CCC(C)(C)C[C@H]1C1=CC[C@@H]3[C@@]4(C)C/C(=C/c5cccnc5)C(=O)C(C)(C)[C@@H]4CC[C@@]3(C)[C@]1(C)CC2	28.7
N#C/C(C(=S)Nc1ccccc1)=C1/NN=C2c3ccccc3C(=O)NN21	63.3

Exam item: Param item = `Cc1cc(C)cc(Nc2nnc3n2S(=O)(=O)c2cc(C#N)c(Cl)cc2S3)c1` ; retrieve measured TGI.
Marked response: 4.59

---

system: MDA-MB-231 breast; assay: NCI tumour cell line growth inhibition, 48 h; in the data active = GI50 below about 0.43 µM; inactive = the rest
I would appreciate it if you answered using one of these outcomes: yes (1) (active), no (0) (inactive)

Solved entries (count: 5):
COc1ccc(S(=O)(=O)N(Cc2ccc3c(n2)C=CC(C)(C)O3)C2CCC2)cc1OC	yes (1)
COc1cc([C@@H]2c3cc4c(cc3C(O[C@@H]3O[C@@H]5CO[C@@H](c6cccs6)OC5[C@H](O)[C@H]3O)C3COC(=O)[C@@H]32)OCO4)cc(OC)c1O (some centres undefined)	yes (1)
Nc1nccc(-c2c(-c3ccc(F)cc3)ncn2CCCN2CCOCC2)n1	no (0)
COc1ccc(C2CC(=O)c3c(OC)cc(OC)cc3O2)cc1 (centres undefined)	no (0)
COc1ccc(-c2cc3c(nn2)-c2ccccc2C3=O)cc1	no (0)

Exam item: Recorded test call requested for `Cn1cc(C2=C(c3cn(CCCN=C(N)N)c4ccccc34)C(=O)NC2=O)c2ccccc21`
Marked response: no (0)

Exam item: Recorded test call requested for `COc1cccc(N=Cc2c3ccccc3c(=O)n3c2oc2ccccc23)c1`
Marked response: no (0)

Exam item: Recorded test call requested for `CC(=O)[O][Hg][c]1c(C)c(C)c(C)c(C)c1C`
Marked response: no (0)

Exam item: Recorded test call requested for `C[C@]12CC[C@@H]3c4ccc(O)cc4CC[C@H]3[C@@H]1CC[C@@H]2NS(=O)(=O)c1ccc(C(F)(F)F)cc1`
Marked response: no (0)

---

system: SNB-19 CNS; test: NCI tumour cell line growth inhibition, 48 h; in the data active = GI50 below about 0.43 µM; inactive = the rest
I would appreciate it if you answered using one of these outcomes: active, inactive

CC[C@H](C)[C@H](NC(=O)[C@H]1CCCCN1C)C(=O)N(C)[C@H](CCc1nc(C(=O)N[C@@H](Cc2ccccc2)C[C@H](C)C(=O)OC)cs1)C(C)C	active
C[C@]12CC[C@@H]3c4ccc(O)cc4CC[C@H]3[C@@H]1CC[C@@H]2NS(=O)(=O)c1ccc(C(F)(F)F)cc1	inactive
CC(C)=[CH][Sb]([Br])([CH]=C(C)C)([CH]=C(C)C)[CH]=C(C)C	inactive
COc1cc([C@@H]2c3cc4c(cc3C(O[C@@H]3O[C@@H]5CO[C@@H](c6cccs6)OC5[C@H](O)[C@H]3O)C3COC(=O)[C@@H]32)OCO4)cc(OC)c1O (stereo partly drawn)	active
CC(=O)[O][Hg][c]1c(C)c(C)c(C)c(C)c1C	inactive

Exam item: Recorded test call requested for CC12CCCC(CC(=O)c3[nH]c4ccccc4c31)C2 (stereo not drawn)
Marked response: inactive

Exam item: Recorded test call requested for `NC(N)=NC(N)=Nc1cc2ccccc2c2ccccc12`
Marked response: inactive

Exam item: Recorded test call requested for `COc1cc(C(=O)O[C@H](C(N)=O)[C@]2(C)CO2)c2ccccc2c1`
Marked response: inactive

---

tested on: DU-145 prostate; assay: NCI tumour cell line growth inhibition, 48 h
Would you mind telling me the reported TGI of each entry?
One number for each entry, in µM.

Solved entries:
O=C(CCCSc1nc(-c2ccc(Cl)cc2)cc(-c2ccc(Cl)cc2)n1)NO	8.94
CCOC(=O)C(=C(SC)SC)c1nn2c(=O)cc(C)nc2s1	30.1
CCCCNC(=O)NS(=O)(=O)c1ccc(N2N=C(c3ccc(C)cc3C)CC2c2ccc(N(C)C)cc2)cc1 (configuration not stated)	81.1
COc1ccc(OC)c2c1C(=O)C(Cl)=C(N1CCN(CCOCCO)CC1)C2=O	32.8
COc1cc(C2c3cc4c(cc3[C@H](OCCN(C)C)[C@@H]3COC(=O)C23)OCO4)cc(OC)c1O (some centres not stated)	0.549

API: the following record is the query input.
Exam item: Param item = `CC(C)(C)C1=CC(=CC=C2C=CN(CCCCCCCCCCCO)C=C2)C=C(C(C)(C)C)C1=O` ; retrieve measured TGI.
Marked response: 20.7

---

test system: BT-549 breast; test: NCI tumour cell line growth inhibition, 48 h; in the data active = GI50 below about 0.43 µM; inactive = the rest
I would appreciate it if you answered using one of these outcomes: T for active, F for inactive

Solved entries (count: 5):
COc1cc(-c2c(C#N)c(N)n3c(nc4ccccc43)c2C#N)cc(Br)c1OC	F
COc1ccc(C(=O)/C=C/c2cccnc2Nc2cc(OC)c(OC)c(OC)c2)cc1	F
COc1ccc(OC(=O)O[C@H]2[C@H](O[C@H]3[C@@H](O)COC(O[C@H]4C[C@H]5[C@@H]6CC=C7C[C@@H](O)CC[C@]7(C)[C@H]6CC[C@]5(C)[C@H]4[C@H](C)C(=O)CCC(C)C)[C@@H]3OC(C)=O)OC[C@@H](O)[C@@H]2O)cc1 (stereo partly drawn)	T
COc1ccc(C2CC(=O)c3c(OC)cc(OC)cc3O2)cc1 (stereo not drawn)	F
Cc1cc(C)cc(Nc2cc(C)nc3nc(C(F)(F)F)nn23)c1	F

Exam item: Recorded test call requested for `Cn1cc(C2=C(c3cn(CCCN=C(N)N)c4ccccc34)C(=O)NC2=O)c2ccccc21`
Marked response: F

Exam item: Recorded test call requested for `C[C@]12CC[C@@H]3c4ccc(Oc5nc(N6CC6)nc(N6CC6)n5)cc4CC[C@H]3[C@@H]1CCC2=O`
Marked response: F

Exam item: Recorded test call requested for `CC(C)(C)OC(=O)N(CCCN(CCn1c2c(c3ccccc3c1=O)C(=O)c1ccccc1-2)C(=O)OC(C)(C)C)CCn1c2c(c3ccccc3c1=O)C(=O)c1ccccc1-2`
Marked response: F

---

tested on: SN12C renal; experiment: NCI tumour cell line growth inhibition, 48 h
Would you mind telling me the reported TGI of each entry?

Cc1ccccc1Nc1cn(COCc2ccccc2)c(=O)[nH]c1=O	> 100 µM
CNC1C(=O)C(C)C(O)(C(CC(C)C(O)/C=C/C=C/CNC(=O)C(C)(C)C(O)\C(C)=C/C=C\C=C\Cc2cnc(C)o2)OC)C12C(=O)OC2COC (stereo not drawn) (tested in a mixture with another compound)	> 82.7 µM
COc1cccc(NCc2nnc(Nc3ccc(Cl)cc3)c3ccccc23)c1	10.7 µM
CCOC(=O)N/N=C(/N)Cc1ccccc1	> 100 µM
COc1cc(C2c3cc4c(cc3[C@@H](Nc3ccccc3)C3CO[C@@H](OC)[C@H]23)OCO4)cc(OC)c1O (stereo partly drawn)	> 25 µM
CCCNC(=S)N/N=C(\C)c1ccccn1	> 100 µM

Fill in TGI for each of the 5 compounds listed.
1. O=C(O)c1cc(N=Nc2ccc([As](=O)(O)O)cc2)ccc1O
2. NC(N)=N/N=C/c1c(Cl)nc2sccn12
3. CC(C)(C)OC(=O)N(CCCN(CCn1c2c(c3ccccc3c1=O)C(=O)c1ccccc1-2)C(=O)OC(C)(C)C)CCn1c2c(c3ccccc3c1=O)C(=O)c1ccccc1-2
4. S=C(/N=c1/sc(Nc2ccccc2)nc2sc3c(c12)CCCC3)Nc1ccccc1
5. COc1cc(Cn2c(-c3ccccc3)cc3c2-c2oncc2CC3)cc(OC)c1OC

Marked response:
1. > 100 µM
2. > 100 µM
3. > 50 µM
4. > 62.5 µM
5. > 100 µM
